# Method description: Half life in mouse liver S9 fraction
# Assay type: ADME, subcellular
Mark Yes for half-life under 50 min, No if at or over.

> print(dat)
                                   molecule  label.class
1  CC(C)(CO)CNC1=NC(=O)/C(=C/c2csc(-c3cccc(OC(F)(F)F)c3O)n2)S1           No

Consider the molecule O=C1N=C(N[C@H]2CCC[C@@H]2CO)S/C1=C\c1csc(-c2cccc(F)c2O)n1 (stereo in doubt) . Is its half-life strictly less than 50 min?
Yes

Consider the molecule `O=C1N=C(NCC2(CO)CC2)S/C1=C\c1csc(-c2ccccc2O)n1` . Is its half-life strictly less than 50 min?
Yes

Consider the molecule `O=C1N=C(NCC2CCN(CCO)CC2)S/C1=C\c1csc(-c2ccccc2O)n1` . Is its half-life strictly less than 50 min?
No

Consider the molecule `CC(C)(CO)CNC1=NC(=O)/C(=C/c2csc(-c3cccc(F)c3O)n2)S1` . Is its half-life strictly less than 50 min?
Yes

Consider the molecule `CC(C)(CO)CNC1=NC(=O)/C(=C/c2csc(-c3ccc(F)cc3O)n2)S1` . Is its half-life strictly less than 50 min?
Yes
